- targetUnderTest: human GLP-1R (Homo sapiens)
- Construct: expressed in transfected cells; host or cells: PEAK RAPID-derived Gα15-trans48 LD stably expressing cells (PRG48), transiently transfected with Lipofectamine 2000
- Sequence (P43220 24-463): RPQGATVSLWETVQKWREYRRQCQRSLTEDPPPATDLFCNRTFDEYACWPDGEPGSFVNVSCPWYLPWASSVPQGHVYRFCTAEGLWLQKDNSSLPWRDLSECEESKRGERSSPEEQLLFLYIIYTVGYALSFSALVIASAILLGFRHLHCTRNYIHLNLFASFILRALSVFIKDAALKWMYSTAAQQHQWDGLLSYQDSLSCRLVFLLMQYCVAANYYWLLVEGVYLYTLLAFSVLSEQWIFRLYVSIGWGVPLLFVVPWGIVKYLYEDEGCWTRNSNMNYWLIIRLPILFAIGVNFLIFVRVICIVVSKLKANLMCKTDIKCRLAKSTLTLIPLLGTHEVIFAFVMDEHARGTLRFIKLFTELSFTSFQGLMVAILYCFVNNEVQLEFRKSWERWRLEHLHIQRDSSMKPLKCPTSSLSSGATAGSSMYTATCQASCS
- assayProcedure: GLP-1 receptor in vitro calcium assay (intracellular free calcium concentration change induced via GLP-1 receptor)
- Format: cell-based
- testParameters: intensity compared to BETP, activity of BETP as 1
Friendly reminder: GLP-1 receptor action enhancing activity (vs BETP) below 30 is condition met, at or above is condition not met.

Problem: For the compound `CCCC[C@@H](NC(=O)[C@@H](Cc1ccccc1)NC(=O)Nc1ccc(NS(=O)(=O)c2ccc(C)cc2)cc1)C(=O)OC` , is GLP-1 receptor action enhancing activity (vs BETP) under 30?
condition met

Problem: For the compound CCCCC(CC)CNC(=O)[C@@H](Cc1c[nH]c2ccccc12)NC(=O)Nc1ccc(NS(=O)(=O)c2ccc(C)cc2)cc1 (stereo partly drawn) , is GLP-1 receptor action enhancing activity (vs BETP) under 30?
condition not met

Problem: For the compound `Cc1ccc(S(=O)(=O)Nc2ccc(NC(=O)N[C@H](Cc3ccccc3)C(=O)OC(C)(C)C)cc2)cc1` , is GLP-1 receptor action enhancing activity (vs BETP) under 30?
condition met

Problem: For the compound `Cc1ccc(S(=O)(=O)Nc2ccc(NC(=O)N[C@H](Cc3ccccc3)C(=O)NCC#N)cc2)cc1` , is GLP-1 receptor action enhancing activity (vs BETP) under 30?
condition not met

Problem: For the compound `Cc1cccc(S(=O)(=O)Nc2ccc(NC(=O)N[C@@H](Cc3ccccc3)C(=O)OC(C)(C)C)cc2)c1` , is GLP-1 receptor action enhancing activity (vs BETP) under 30?
condition met

Problem: For the compound CSCCCN(c1ccc(NC(=O)N[C@H](CC2CCCCC2)C(=O)NC(C)CCCC(C)C)cc1)S(=O)(=O)c1ccc(C(C)(C)C)cc1 (stereo partly drawn) , is GLP-1 receptor action enhancing activity (vs BETP) under 30?
condition not met

----------
- targetUnderTest: human GLP-1R (Homo sapiens)
- assayProcedure: GLP-1 receptor in vitro calcium assay (intracellular free calcium concentration change induced via GLP-1 receptor)
- testParameters: PRG48 cells transfected with human GLP-1R; compound added with 250 pM GLP-1; Ca2+ response ΔF/F; read-out: Ca EC50 value
pEC50: −log10 of the molar value.
// label = t if pEC50 is not less than 7, otherwise f

Entry CCCCCCNC(=O)[C@@H](Cc1c[nH]c2ccccc12)NC(=O)Nc1cccc(NS(=O)(=O)c2ccc(C(C)(C)C)cc2)c1 [Compound 95] : is its pEC50 no less than 7?
f

Entry Cc1ccc(S(=O)(=O)Nc2ccc(NC(=O)N[C@H](Cc3ccccc3)c3nc(C(C)(C)C)no3)cc2)cc1 [Compound 70] : is its pEC50 no less than 7?
f

Entry CC(C)CCCC(C)NC(=O)[C@H](CC1CCCCC1)NC(=O)Nc1ccc(NS(=O)(=O)c2ccc(C(C)(C)C)cc2)cc1 (stereo partly drawn) [Compound 56] : is its pEC50 no less than 7?
t

Entry CCCCC(CC)CNC(=O)[C@H](CC(C)C)NC(=O)Nc1ccc(NS(=O)(=O)c2ccc(C(C)(C)C)cc2)cc1 (stereo partly drawn) [Compound 51] : is its pEC50 no less than 7?
t

Entry Cc1ccc(S(=O)(=O)Nc2ccc(N(C)C(=O)N[C@H](Cc3ccccc3)C(=O)OC(C)(C)C)cc2)cc1 [Compound 86] : is its pEC50 no less than 7?
f

Values from patent US20190022039A1
